The measurements presented in this section are drawn from the supplement of paper PMC10567573.

B1: PLAGL1 (parent)
chain: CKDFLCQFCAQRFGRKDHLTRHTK

Variants of: B1
Assay: protein stability index of a GFP-peptide fusion (GPS, HEK-293T) (PSI 1-6); higher = more stable;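 further: lentivirally expressed fusions sorted by FACS into six bins by GFP to DsRed ratio, PSI derived from sequencing read proportions per bin multiplied by bin number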
Conditions: c terminus: a fixed tail appended
Parameter: protein stability index
I only need the number, thanks.

Consider the reported protein stability index for these variants:
CKDFLCQFCAQRFWRKDHLTRHTK [G14W] : 1.77
CKDFLCQFCAQRFGRKDHLTRHTC [K24C] : 2.83
CKDFLCQFCAQRFGRKDHLTRDTK [H22D] : 2.09

Problem: Please look up its protein stability index: CKDFLCSFCAQRFGRKDHLTRHTK [Q7S]
Solution: 1.76

Problem: Please look up its protein stability index: WKDFLCQFCAQRFGRKDHLTRHTK [C1W]
Solution: 1.84

Problem: Please look up its protein stability index: CKDFLCQFCAQRFGRKDILTRHTK [H18I]
Solution: 2.07
